Molecular target: Melanocortin receptor 4 (Homo sapiens, UniProt P32245)
Sequence (P32245 whole entry): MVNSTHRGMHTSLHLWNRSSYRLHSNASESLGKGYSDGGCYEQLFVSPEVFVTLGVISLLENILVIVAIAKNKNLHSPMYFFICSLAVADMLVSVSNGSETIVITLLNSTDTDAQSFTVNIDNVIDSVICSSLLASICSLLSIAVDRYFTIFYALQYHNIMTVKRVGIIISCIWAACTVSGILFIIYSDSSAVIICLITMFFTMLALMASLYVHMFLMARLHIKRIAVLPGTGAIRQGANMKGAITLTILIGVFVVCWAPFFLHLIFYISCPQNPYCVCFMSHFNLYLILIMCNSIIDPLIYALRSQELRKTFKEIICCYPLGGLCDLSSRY
Assay: Antagonist activity at human MC4R in CHO cells measured for 24 hrs in presence of alpha-MSH
OBSERVED_PROPERTY: pKi
By convention, pKi is the negative base-10 log of a molar concentration.

SMILES_TEXT: COc1ccc2nc(N[C@H]3CCN(C(=O)Cc4cc(F)cc(F)c4)C3)ccc2c1
TESTED_SYSTEM: Melanocortin receptor 4 (Homo sapiens, UniProt P32245)
OBSERVED_MEASUREMENT: 9.21

// query Read off the recorded pKi for "COc1cc([C@@H](C)C(=O)N2CC[C@@]3(CCc4cc(-c5nc(C(F)(F)F)n(C)n5)c(C)nc4N3)C2)c(F)cn1"
// result 9.35

// query Quote pKi reported for "Cc1nc2c(cc1-c1cnn(C)c1)CC[C@@]1(CCN(C(=O)Cc3ccc(F)cc3)C1)N2" please.
// result 9.22

// query Give a short answer stating reported pKi for "COc1cc([C@@H](C)C(=O)N2CC[C@@]3(CCc4cc(-c5nc(C(F)F)n(C)n5)c(C)nc4N3)C2)c(F)cn1" .
// result 9.31

// query Quickly give me recorded pKi for "Cc1nc(N[C@H]2CCN(C(=O)Cc3ccc(F)cc3)C2)ccc1-c1ncn(C)n1"
// result 7.72

// query Using known records, supply pKi for "COc1cc([C@@H](C)C(=O)N2CC[C@H](Nc3ccc(-c4ncccn4)c(C)n3)C2)c(F)cn1"
// result 8.19

// query Provide measured pKi value, entry: "COc1cc([C@@H](C)C(=O)N2CC[C@H](Nc3ccc(-c4nc(C(F)F)n(C)n4)c(C)n3)C2)ccn1"
// result 8.85

---

Form field: hepatocyte CLint (one value per entry).
Experiment: Metabolic stability in human hepatocyte assessed as intrinsic clearance measured per million cells HPLC/UV/MS analysis
Assay type: ADME, cell-based
Conditions: hepatocytes, read-out: CLH
Express the result in µL/min/1e6 cells but write the number alone.

As a guide, the following entries are already answered.
SMILES_TEXT: Cc1nc2c(cc1-c1cnn(C)c1)CC[C@@]1(CCN(C(=O)Cc3ccc(F)cc3)C1)N2
hepatocyte CLint / µL/min/1e6 cells: 6.5

SMILES_TEXT: COc1cc(CC(=O)N2CC[C@H](Nc3ccc(-c4nc(C(F)F)n(C)n4)c(C)n3)C2)ccn1
hepatocyte CLint / µL/min/1e6 cells: 7.1

Moving on to the next compound.
// query Provide measured hepatocyte CLint value, entry: "COc1cc([C@@H](C)C(=O)N2CC[C@@]3(CCc4cc(-c5nc(C(F)(F)F)n(C)n5)c(C)nc4N3)C2)c(F)cn1"
// result 12

---

Experiment: Clearance in Beagle dog plasma at 1 mg/kg, iv measured at 0.033 to 24 hrs by LC-MS/MS analysis
Type: ADME, organism-based, Canis lupus familiaris
Conditions: time 0.033-24 hrs
OBSERVED_PROPERTY: clearance (L/h/kg)
# unit: L/h/kg | format: bare number

// query Find the measured clearance of "COc1cc([C@@H](C)C(=O)N2CC[C@@]3(COc4cc(-c5ncccn5)c(C)nc4N3)C2)c(F)cn1" and report it.
// result 0.66

---

Assay: AUClast in Wistar Han rat at 1 mg/kg, iv measured at 0.033 to 24 hrs by LC-MS/MS analysis
Type: ADME, organism-based
Set-up: dose 1 mg/kg, time upper 24 hrs, time lower 0.033 hrs, route iv
Settings: in vivo
OBSERVED_PROPERTY: AUC(0-t) (ng·h/mL)
Just the number please, in ng·h/mL, no unit attached.

// query Provide AUC(0-t) value for the following compound: "COc1cc([C@@H](C)C(=O)N2CC[C@@]3(COc4cc(-c5ncccn5)c(C)nc4N3)C2)c(F)cn1"
// result 780
